Target: thrombin (Homo sapiens)
Construct: consists of two polypeptide chains of 36 (light chain) and 259 amino acid
Assay: Thrombin inhibition screen of crude macrocycle reactions (residual thrombin activity, fluorogenic substrate Z-Gly-Gly-Arg-AMC)
Assay type: biochemical
Conditions: 10 µM macrocycle concentration; macrocycles containing acid 14; crude reaction; original screen
Numbered stars: 1 amine (or outer) side, 2 acyl side, 3 side chain; on linkers, the order of the positions; unused ones are H or OH. Bridge positions count the residues as written; N and C are the ends. Square brackets hold non-standard residues; d marks the D form. Peptide text beside a SMILES is read from it. * marks the point of attachment. ξ: configuration not given here. Pro(4S-NHCO(5-Cl-2-thienyl)) = O=C(N[C@@H]1CN[C@H](C(=O)O)C1)c1ccc(Cl)s1; ξPro(4-NHCO(5-Cl-2-thienyl)) = O=C(NC1CNC(C(=O)O)C1)c1ccc(Cl)s1; 2Thenoyl(5-Cl) = O=C(c1ccc(Cl)s1)*; Cysteamide = C(CS[*:3])N[*:1]; Mpa = O=C(O)CCS
measurement_kind: % thrombin activity, Original screen (%)
Just the number in %, nothing appended.

Below: 5 compounds and their reported % thrombin activity, Original screen.
compound: O=C1CCSSCCNC(=O)[C@@H](Cc2ccccc2)NC(=O)c2cccc(c2)CNC(=O)C2(CCN(C(=O)c3ccc(Cl)s3)CC2)N1
% thrombin activity, Original screen / %: 92.3
//
compound: O=C1CCSSCCNC(=O)C(Cc2c[nH]c3ccccc23)NC(=O)C2CC(NC(=O)c3ccc(Cl)s3)CN2C(=O)c2cccc(c2)CN1 (centres unmarked)
% thrombin activity, Original screen / %: 112.0
//
compound: O=C1CCSSCCNC(=O)[C@@H](CNC(=O)c2ccc(Cl)s2)NC(=O)[C@H]2CCCN(C2)C(=O)[C@H](Cc2c[nH]c3ccccc23)N1
% thrombin activity, Original screen / %: 108.0
//
compound: O=C1CCSSCCNC(=O)C2CCCN2C(=O)C2CC(NC(=O)c3ccc(Cl)s3)CN2C(=O)C(Cc2c[nH]c3ccccc23)N1 (centres unmarked) [X W D5 B1] ([Mpa]W[ξPro(4-NHCO(5-Cl-2-thienyl))]P-Cysteamide; disulfide 1-C; configuration not given here)
% thrombin activity, Original screen / %: 113.1
//
compound: O=C1CCSSCCNC(=O)c2ccc(cc2)CNC(=O)[C@H](CCCCNC(=O)c2ccc(Cl)s2)NC(=O)[C@@H](Cc2ccccc2)N1 [X f D1 B3]
% thrombin activity, Original screen / %: 100.5

Give recorded % thrombin activity, Original screen with thrombin (Homo sapiens) for the following compound: CC1NC(=O)c2ccc(cc2)CNC(=O)C2(CCN(C(=O)c3ccc(Cl)s3)CC2)NC(=O)CCSSCCNC1=O (centres unmarked) 92.0

# iterate: NC(=O)CC[C@@H]1NC(=O)CCSSCCNC(=O)C2(CCN(C(=O)c3ccc(Cl)s3)CC2)NC(=O)CCNC1=O 97.4

# iterate: O=C1CNC(=O)[C@@H]2CCCN2C(=O)[C@@H](NC(=O)c2ccc(Cl)s2)CSSCCNC(=O)[C@H](Cc2ccccc2)N1 [C B1 G F] ({2Thenoyl(5-Cl)}-CPGF-Cysteamide; disulfide 1-C) 91.5

# iterate: O=C1CCSSCCNC(=O)[C@H](CNC(=O)c2ccc(Cl)s2)NC(=O)[C@@H](Cc2ccc(O)cc2)NC(=O)c2ccc(cc2)CN1 88.0

# iterate: O=C1CNC(=O)[C@H](Cc2ccc(O)cc2)NC(=O)[C@@H]2CCCN2C(=O)[C@@H](NC(=O)c2ccc(Cl)s2)CSSCCN1 [C B1 Y G] ({2Thenoyl(5-Cl)}-CPYG-Cysteamide; disulfide 1-C) 98.5

# iterate: O=C1CCSSCCNC(=O)C(CCCCNC(=O)c2ccc(Cl)s2)NC(=O)C(CO)NC(=O)c2cccc(c2)CN1 (centres unmarked) [X B5 S D1] 96.4

# iterate: NC(=O)CC[C@@H]1NC(=O)[C@H]2CCCN(C2)C(=O)CCSSCCNC(=O)C2(CCN(C(=O)c3ccc(Cl)s3)CC2)NC1=O 93.8

# iterate: NC(=O)CC[C@@H]1NC(=O)[C@@H]2C[C@H](NC(=O)c3ccc(Cl)s3)CN2C(=O)[C@@H]2CCCN2C(=O)CCSSCCNC1=O [X B1 D5 Q] ([Mpa]P[Pro(4S-NHCO(5-Cl-2-thienyl))]Q-Cysteamide; disulfide 1-C) 96.1

###

Molecular target: UniProt:Q00987
Experiment: MDM2 binding screen: displacement of fluorescent p53 peptide probe FP53 (fluorescence polarization)
Conditions: Acid 14; initial screen; crude macrocycle reactions
Numbered stars: 1 amine (or outer) side, 2 acyl side, 3 side chain; on linkers, the order of the positions; unused ones are H or OH. Bridge positions count the residues as written; N and C are the ends. Square brackets hold non-standard residues; d marks the D form. Peptide text beside a SMILES is read from it. * marks the point of attachment. ξ: configuration not given here. ξPro(4-NHCO(5-Cl-2-thienyl)) = O=C(NC1CNC(C(=O)O)C1)c1ccc(Cl)s1; 2Thenoyl(5-Cl) = O=C(c1ccc(Cl)s1)*; Cysteamide = C(CS[*:3])N[*:1]; Api = NC1(C(=O)O)CCNCC1; Mpa = O=C(O)CCS
Mark TRUE for reported fraction fluorescent probe displaced, Screen of 0.08 or greater; mark FALSE for anything smaller.

Recorded results for 5 compounds are shown here.
compound: O=C1CCSSCCNC(=O)C(Cc2ccccc2)NC(=O)C2(CCN(C(=O)c3ccc(Cl)s3)CC2)NC(=O)c2cccc(c2)CN1 (stereo not drawn)
label: FALSE
--
compound: O=C1NCCSSCCC(=O)N2CCC[C@H]2C(=O)NC2(CCN(C(=O)c3ccc(Cl)s3)CC2)C(=O)N[C@H]1Cc1ccccc1 [X B1 D6 F Acid 14] ([Mpa]P[Api](2Thenoyl(5-Cl))F-Cysteamide; disulfide 1-C)
label: FALSE
--
compound: O=C1CCSSCCNC(=O)c2cccc(c2)CNC(=O)[C@H](Cc2ccccc2)NC(=O)C2(CCN(C(=O)c3ccc(Cl)s3)CC2)N1
label: FALSE
--
compound: O=C(N[C@H]1C[C@H]2C(=O)N[C@@H](Cc3c[nH]c4ccccc34)C(=O)NCCSSCCC(=O)N3CCC[C@@H](C3)C(=O)N2C1)c1ccc(Cl)s1
label: TRUE
--
compound: O=C(NC1CC2C(=O)NC(Cc3ccccc3)C(=O)N3CCCC3C(=O)NCCSSCCC(=O)N2C1)c1ccc(Cl)s1 (stereo not drawn) [X D5 F B1 Acid 14] ([Mpa][ξPro(4-NHCO(5-Cl-2-thienyl))]FP-Cysteamide; disulfide 1-C; configuration not given here)
label: TRUE

Decide: is the reported value of fraction fluorescent probe displaced, Screen for O=C1CCNC(=O)C(Cc2c[nH]c3ccccc23)NC(=O)C2CN(C(=O)c3ccc(Cl)s3)CCN2C(=O)CCSSCCN1 (stereo not drawn) equal to or greater than 0.08? TRUE

# iterate: O=C1CCNC(=O)C2CN(C(=O)c3ccc(Cl)s3)CCN2C(=O)CCSSCCNC(=O)C(Cc2c[nH]c3ccccc23)N1 (stereo not drawn) TRUE

###

Biological target: MDM2 (Homo sapiens)
Sequence (Q00987 whole entry): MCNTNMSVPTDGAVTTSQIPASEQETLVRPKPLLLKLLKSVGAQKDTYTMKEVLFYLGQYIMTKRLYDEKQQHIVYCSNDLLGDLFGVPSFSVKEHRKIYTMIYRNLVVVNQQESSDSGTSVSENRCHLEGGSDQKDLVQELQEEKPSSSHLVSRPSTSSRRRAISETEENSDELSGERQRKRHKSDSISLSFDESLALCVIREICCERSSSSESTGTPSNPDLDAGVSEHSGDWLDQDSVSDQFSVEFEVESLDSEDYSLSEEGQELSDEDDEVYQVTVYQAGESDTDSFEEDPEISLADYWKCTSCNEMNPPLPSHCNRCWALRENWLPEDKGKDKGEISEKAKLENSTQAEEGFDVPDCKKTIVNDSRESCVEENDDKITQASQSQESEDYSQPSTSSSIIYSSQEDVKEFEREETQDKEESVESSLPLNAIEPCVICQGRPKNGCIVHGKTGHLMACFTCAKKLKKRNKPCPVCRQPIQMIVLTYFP
Test: MDM2 binding screen: displacement of fluorescent p53 peptide probe FP53 (fluorescence polarization)
Conditions: Acid 25; replicate; crude macrocycle reactions
Numbered stars: 1 amine (or outer) side, 2 acyl side, 3 side chain; on linkers, the order of the positions; unused ones are H or OH. Bridge positions count the residues as written; N and C are the ends. Square brackets hold non-standard residues; d marks the D form. Peptide text beside a SMILES is read from it. * marks the point of attachment. ξ: configuration not given here. ξPro(4ξ-NHCOC6H4-4-Cl) = O=C(NC1CNC(C(=O)O)C1)c1ccc(Cl)cc1; Benzoyl(4-Cl) = O=C(c1ccc(Cl)cc1)*; Cysteamide = C(CS[*:3])N[*:1]; Api = NC1(C(=O)O)CCNCC1; Mpa = O=C(O)CCS
Labels assigned by fraction fluorescent probe displaced, Replicate range: 1: < 0.1; 2: ≥ 0.1 and < 0.2; 3: ≥ 0.2

compound: O=C1CCSSCCNC(=O)C2(CCN(C(=O)c3ccc(Cl)cc3)CC2)NC(=O)C(Cc2ccccc2)NC(=O)c2cccc(c2)CN1 (stereo not shown) [X B5 F D6 Acid 25]
label: 1
--
compound: O=C1CCSSCCNC(=O)C2CCCN(C2)C(=O)C2CC(NC(=O)c3ccc(Cl)cc3)CN2C(=O)C(Cc2c[nH]c3ccccc23)N1 (stereo not shown) [X W D5 B4 Acid 25]
label: 2
--
compound: O=C1NC2(CCN(C(=O)c3ccc(Cl)cc3)CC2)C(=O)N[C@@H](Cc2c[nH]c3ccccc23)C(=O)NCCSSCCC(=O)N2CCC[C@H]1C2 [X B4 D6 W Acid 25]
label: 3
--
compound: O=C1CCSSCCNC(=O)C2(CCN(C(=O)c3ccc(Cl)cc3)CC2)NC(=O)CCNC(=O)[C@H](Cc2ccccc2)N1 [X F B2 D6 Acid 25]
label: 1
--
compound: O=C1CCSSCCNC(=O)C2CC(NC(=O)c3ccc(Cl)cc3)CN2C(=O)C2CCCN2C(=O)C(Cc2c[nH]c3ccccc23)N1 (stereo not shown) [X W B1 D5 Acid 25] ([Mpa]WP[ξPro(4ξ-NHCOC6H4-4-Cl)]-Cysteamide; disulfide 1-C; configuration not given here)
label: 2
--
compound: O=C1CCSSCCNC(=O)[C@H]2CCCN(C2)C(=O)C2(CCN(C(=O)c3ccc(Cl)cc3)CC2)NC(=O)[C@H](Cc2ccccc2)N1 [X F D6 B4 Acid 25]
label: 1

Now consider a different compound.
Sort O=C1CCSSCCNC(=O)[C@@H]2CCCN2C(=O)C2(CCN(C(=O)c3ccc(Cl)cc3)CC2)NC(=O)[C@H](Cc2c[nH]c3ccccc23)N1 [X W D6 B1 Acid 25] ([Mpa]W[Api](Benzoyl(4-Cl))P-Cysteamide; disulfide 1-C) into one of the categories. 3
